- Study system: D(2) dopamine receptor (Rattus norvegicus, UniProt P61169)
- Sequence (P61169 whole entry): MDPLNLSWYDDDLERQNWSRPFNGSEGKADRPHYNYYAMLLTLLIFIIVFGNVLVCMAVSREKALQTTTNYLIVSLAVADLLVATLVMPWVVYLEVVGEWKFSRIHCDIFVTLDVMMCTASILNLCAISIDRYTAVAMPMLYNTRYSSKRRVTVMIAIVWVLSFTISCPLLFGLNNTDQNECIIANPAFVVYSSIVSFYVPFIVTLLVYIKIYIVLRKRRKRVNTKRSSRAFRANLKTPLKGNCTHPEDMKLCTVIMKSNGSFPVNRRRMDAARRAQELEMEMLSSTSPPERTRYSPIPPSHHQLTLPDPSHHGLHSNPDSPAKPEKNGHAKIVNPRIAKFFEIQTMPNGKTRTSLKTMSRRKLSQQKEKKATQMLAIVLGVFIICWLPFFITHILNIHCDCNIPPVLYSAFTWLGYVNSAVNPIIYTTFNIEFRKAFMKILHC
- Test summary: Binding affinity against Dopamine receptor D2 from rat brain corpus striatum membrane

# Chemical structure, IC50 (nM)
records = [
    ("CCCN1CCc2cc(Br)cc3c2[C@H]1Cc1ccc(O)c(O)c1-3", 0.89),
    ("CCCN1CCc2cc(O)cc3c2[C@H]1Cc1ccc(O)c(O)c1-3", 0.32),
    ("CCCN1CCc2cc(N)cc3c2[C@H]1Cc1ccc(O)c(O)c1-3", 5.5),
]
